Overview of reported EC50 across a group of molecules:
molecular target: NMDAR2B (Homo sapiens); construct: expressed in transfected cells; host or cells: HEK cells (membrane extract); assay: [3H]MK-801 binding in NMDAR expressing HEK cell membranes (facilitation of NMDAR activation); assay type: biochemical; conditions: 50 μM glutamate, read-out: B: log EC50 (converted)
Sequence (Q13224 27-1484, species assumed, other chains not shown): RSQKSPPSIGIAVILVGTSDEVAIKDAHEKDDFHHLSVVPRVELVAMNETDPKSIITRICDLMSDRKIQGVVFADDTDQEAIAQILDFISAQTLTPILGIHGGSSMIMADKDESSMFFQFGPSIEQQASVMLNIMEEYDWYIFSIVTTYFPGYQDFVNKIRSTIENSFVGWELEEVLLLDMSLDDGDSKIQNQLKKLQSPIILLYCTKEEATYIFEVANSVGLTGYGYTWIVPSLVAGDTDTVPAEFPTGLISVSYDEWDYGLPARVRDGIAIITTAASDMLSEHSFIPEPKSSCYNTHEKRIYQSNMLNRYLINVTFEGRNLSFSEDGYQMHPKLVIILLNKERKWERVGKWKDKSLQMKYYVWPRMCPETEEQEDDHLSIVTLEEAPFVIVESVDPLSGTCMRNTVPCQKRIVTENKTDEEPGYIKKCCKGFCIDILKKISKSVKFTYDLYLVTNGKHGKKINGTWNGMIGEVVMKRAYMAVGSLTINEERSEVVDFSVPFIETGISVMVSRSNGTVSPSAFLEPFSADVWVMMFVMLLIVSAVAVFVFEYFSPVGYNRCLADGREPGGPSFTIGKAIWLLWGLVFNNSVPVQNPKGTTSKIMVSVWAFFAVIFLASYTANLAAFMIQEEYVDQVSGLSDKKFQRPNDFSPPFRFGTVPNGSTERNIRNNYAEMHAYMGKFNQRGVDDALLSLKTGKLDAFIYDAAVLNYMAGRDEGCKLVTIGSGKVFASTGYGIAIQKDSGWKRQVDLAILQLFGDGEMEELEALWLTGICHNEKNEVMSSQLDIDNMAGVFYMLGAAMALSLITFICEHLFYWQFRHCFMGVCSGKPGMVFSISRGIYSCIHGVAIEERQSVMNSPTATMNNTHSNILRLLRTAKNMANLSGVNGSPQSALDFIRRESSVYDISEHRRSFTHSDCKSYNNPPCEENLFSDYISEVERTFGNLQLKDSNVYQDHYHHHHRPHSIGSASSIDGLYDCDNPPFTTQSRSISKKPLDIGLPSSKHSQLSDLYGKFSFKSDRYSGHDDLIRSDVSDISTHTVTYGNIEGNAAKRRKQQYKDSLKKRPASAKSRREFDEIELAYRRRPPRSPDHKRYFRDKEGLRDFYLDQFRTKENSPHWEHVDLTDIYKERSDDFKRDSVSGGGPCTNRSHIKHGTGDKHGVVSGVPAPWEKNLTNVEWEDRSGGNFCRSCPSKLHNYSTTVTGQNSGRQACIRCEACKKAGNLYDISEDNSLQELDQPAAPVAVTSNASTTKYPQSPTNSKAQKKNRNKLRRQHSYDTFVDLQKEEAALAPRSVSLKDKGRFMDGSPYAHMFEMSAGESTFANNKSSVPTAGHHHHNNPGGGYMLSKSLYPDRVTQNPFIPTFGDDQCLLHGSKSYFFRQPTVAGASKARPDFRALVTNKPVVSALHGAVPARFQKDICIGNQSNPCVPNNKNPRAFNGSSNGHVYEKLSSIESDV

// solved cases for EC50 follow
Molecule	Measured Target	EC50
O=C1NCC12CCCCC2 [Compound AB, 2-azaspiro[3.5]nonan-1-one]	NMDAR2B (Homo sapiens)	< 1 nM
CC1CCC2(CC1)CNC2=O (racemic) [Compound AD, 7-methyl-2-azaspiro[3.5]nonan-1-one]	NMDAR2B (Homo sapiens)	≥ 1 nM
COc1ccc(CN2CC3(CCC(O)CC3)C2=O)cc1 (stereo not shown)	NMDAR2B (Homo sapiens)	< 1 nM

Q: Find the recorded EC50 belonging to O=C1NCC12CCC(OCc1ccccc1)CC2 (single isomer, unassigned) [AI, 7-(benzyloxy)-2-azaspiro[3.5]nonan-1-one] and report it.
Ans: < 1 nM

* * *

assay: IV pharmacokinetics; assay type: in vivo, Sprague Dawley rats; conditions: rat, intravenous 2 mg/kg, normal saline (* in 5% NMP, 5% Solutol HS, 90% normal saline)
Recorded CI values for a group of compounds are listed next.
State just the number; it will be interpreted in mL/min/kg.

Check out these entries, answers already filled in.
Compound	Readout Type	Measure Unit	Numeric Result
O=C1NCC12CCC(O)CC2 (centres unmarked) [AL, 7-hydroxy-2-azaspiro[3.5]nonan-1-one]	CI	mL/min/kg	5.4
CC1CCC2(CC1)CN([C@H](C(N)=O)[C@@H](C)O)C2=O (mixture of isomers)	CI	mL/min/kg	22.44
CC1CCC2(CC1)CN(C(CCC(N)=O)C(N)=O)C2=O (single isomer, unassigned)	CI	mL/min/kg	34.13
NC(=O)C(CO)N1CC2(CCCCC2)C1=O (single isomer, unassigned)	CI	mL/min/kg	15.94

Please look at the following compound next.
Q: Name the recorded CI for O=C1NCC12CCC(NCc1ccccc1)CC2 (centres unmarked) .
Ans: 50.52

* * *

assay: oral pharmacokinetics (plasma, brain, CSF); format: in vivo, Sprague Dawley rats; details: Sprague-Dawley, rat, plasma, po, 10 mg/kg, per os 10 mg/kg
Readout Type: bioavailability (%)
Respond numerically; units are % and should not be typed.

Compound	Readout Type	Numeric Result
O=C1NCC12CCC(O)CC2 (centres unmarked) [AL, 7-hydroxy-2-azaspiro[3.5]nonan-1-one]	bioavailability	97
O=C1NCC12CCC(OCc1ccccc1)CC2 (single isomer, unassigned) [AI, 7-(benzyloxy)-2-azaspiro[3.5]nonan-1-one]	bioavailability	94
CC1CCC2(CC1)CN(C(CCC(N)=O)C(N)=O)C2=O (single isomer, unassigned)	bioavailability	100
O=C1NCC12CCCCC2 [Compound AB, 2-azaspiro[3.5]nonan-1-one]	bioavailability	88
NC(=O)C(CO)N1CC2(CCCCC2)C1=O (single isomer, unassigned)	bioavailability	80

Q: Consider the compound CC1CCC2(CC1)CNC2=O (racemic) [Compound AD, 7-methyl-2-azaspiro[3.5]nonan-1-one] and give its measured bioavailability.
Ans: 67

Q: Value lookup for bioavailability; key = `C[C@@H](O)[C@@H](C(N)=O)N1CC2(CCCCC2)C1=O`
Ans: 78

Q: Entry CC1CCC2(CC1)CN(CC(N)=O)C2=O (centres unmarked) : reported bioavailability = ?
Ans: 52

* * *

test: oral pharmacokinetics (plasma, brain, CSF); assay type: in vivo, Sprague Dawley rats; details: Sprague-Dawley, rat, plasma, po, 10 mg/kg, per os 10 mg/kg
Readout Type: AUC(0-t) (ng·h/mL)
Express your answer in ng·h/mL, writing the number without its unit.

Molecule	AUC(0-t) (ng·h/mL)
CC1CCC2(CC1)CN([C@H](C(N)=O)[C@@H](C)O)C2=O (mixture of isomers)	4850

Q: I would be grateful if you could share the reported AUC(0-t) for `C[C@@H](O)[C@@H](C(N)=O)N1CC2(CCCCC2)C1=O` .
Ans: 1540

Q: Request the reported AUC(0-t) associated with CC1CCC2(CC1)CN(C(CO)C(=O)O)C2=O (single isomer, unassigned)
Ans: 2210

Q: // lookup AUC(0-t) for CC1CCC2(CC1)CNC2=O (racemic) [Compound AD, 7-methyl-2-azaspiro[3.5]nonan-1-one]
Ans: 4580

Q: Consider the molecule CC1CCC2(CC1)CN(C(CCC(N)=O)C(N)=O)C2=O (single isomer, unassigned) and give its measured AUC(0-t).
Ans: 5290

Q: If you can, please state the reported AUC(0-t) value of O=C1NCC12CCC(O)CC2 (centres unmarked) [AL, 7-hydroxy-2-azaspiro[3.5]nonan-1-one] .
Ans: 19300

Q: Reported AUC(0-t) for C[C@@H](O)[C@H](NC1CCC2(CC1)CNC2=O)C(N)=O (single isomer, unassigned) : what is it?
Ans: 2050

Q: So what does the record say about AUC(0-t) for O=C1NCC12CCCCC2 [Compound AB, 2-azaspiro[3.5]nonan-1-one] ?
Ans: 11600

* * *

Measured bioavailability values are reported for all entries that follow.
assay: oral pharmacokinetics (plasma, brain, CSF); assay type: in vivo, Sprague Dawley rats; conditions: Sprague-Dawley, rat, plasma, po, 10 mg/kg, per os 10 mg/kg
Answer with a number only, understood to be in %.

Below: 2 compounds and their reported bioavailability.
Compound	Measure Unit	bioavailability
CC1CCC2(CC1)CN(C(CO)C(=O)O)C2=O (single isomer, unassigned)	%	25
CC1CCC2(CC1)CN([C@H](C(N)=O)[C@@H](C)O)C2=O (mixture of isomers)	%	66

Q: Give the measured bioavailability of C[C@@H](O)[C@H](NC1CCC2(CC1)CNC2=O)C(N)=O (single isomer, unassigned) .
Ans: 15

* * *

Recorded AUC(0-t), one value per entry.
test: oral pharmacokinetics (plasma, brain, CSF); assay type: in vivo, Sprague Dawley rats; settings: Sprague-Dawley, rat, plasma, po, 10 mg/kg, per os 10 mg/kg

Observe how each entry below is paired with its result.
Compound	Result
NC(=O)C(CO)N1CC2(CCCCC2)C1=O (single isomer, unassigned)	8340 ng·h/mL
CC1CCC2(CC1)CN(CC(N)=O)C2=O (stereo not drawn)	612 ng·h/mL

With those in mind, consider the next compound.
Q: Requested read-out: AUC(0-t). Entry: O=C1NCC12CCC(OCc1ccccc1)CC2 (single isomer, unassigned) [AI, 7-(benzyloxy)-2-azaspiro[3.5]nonan-1-one]
Ans: 5900 ng·h/mL
